B1: ZNF24 (parent)
chain: YGETCFPKGRFERKRNPSRKKQHI

variants of: B1; experiment: protein stability index of a GFP-peptide fusion (GPS, HEK-293T) (PSI 1-6); higher = more stable; details: c terminus: a fixed tail appended;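 further: lentivirally expressed fusions sorted by FACS into six bins by GFP to DsRed ratio, PSI derived from sequencing read proportions per bin multiplied by bin number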
The entries below are paired with their reported protein stability index.
Please reply with the number alone, leaving off any unit.

Answered examples (5):
Look up protein stability index: "F6Y"
4.74

Quick check: protein stability index of "F11Y" ?
3.32

// returns reported protein stability index for input "C5W"
2.53

// protein stability index lookup, key: "G2P"
2.89

Param item = "R15P" ; retrieve measured protein stability index.
3.15

---
Look up protein stability index for this variant: "P17Y"
2.34

Value lookup for protein stability index; key = "E12T"
3.16
